Source listed as patent US20220064286A1.

Target: cynomolgus monkey (cyno) TIGIT protein (cynomolgus monkey, UniProt A0A7N9I9V4 89-209)
Sequence (A0A7N9I9V4 entry or part of it): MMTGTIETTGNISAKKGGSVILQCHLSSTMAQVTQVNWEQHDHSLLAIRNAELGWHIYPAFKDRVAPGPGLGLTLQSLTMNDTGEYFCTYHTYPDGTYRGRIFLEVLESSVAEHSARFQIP
Test: SPR, captured mAb
reported_property: kon (M⁻¹ s⁻¹)
Dear colleague, please return just the value in M⁻¹ s⁻¹, with no unit written.

[[record]]
binder = "h7E7.L5aH9a (antibody, V domains shown, Final humanized 7E7; keeps rat VH I47 and VL Y71; FR/HVR pieces) VH: EVQLVQSGAEVKKPGASVKVSCKASGYTFTEYSIYWVRQAPGQRLEIMGRIDPKNGRTYYVDKFKNRVTITRDTSASTAYMELSSLRSEDTAVYYCARIYGFYFDFWGQGTLVTVSS VL: DIQLTQSPSFLSASVGDRVTITCKGSQNVNKYLVWYQQKPGKAPKLLIYNTDNLQSGVPSRFSGSGSGTEYTLTISSLQPEDFATYYCYQYNNGFTFGQGTKVEIK"
measure_unit = "M⁻¹ s⁻¹"
result_value = 591000

[[record]]
binder = "h15C8.L2H1 (antibody, V domains shown, VL: I58V against h15C8.L1H1; FR/HVR pieces) VH: EVQLVQSGAEVKKPGASVKVSCKASGYTFTEHSIYWLRQAPGQRLEIIGRIDPKNGRTYFVDKFKNRATLTTDTSASTAYMELSSLRSEDTAVYFCARIDGFYFDFWGQGTLVTVSS VL: DIQLTQSPSFLSASVGDRVTITCKGSQNVNKYLVWYQQKPGKAPKLLIYSTDNLQSGVPSRFSGSGSGTEYTLTISSLQPEDFATYFCYQYNNGFTFGQGTKVEIK"
measure_unit = "M⁻¹ s⁻¹"
result_value = 502000

[[record]]
binder = "h10A5.L4H4 (antibody, V domains shown, Fully humanized version; FR/HVR pieces in order) VH: EVTLKESGPALVKPTQTLTLTCTFSGFSLTTYGMGVSWIRQPPGKALEWLASIWWNGNTYYNPSLRSRLTITKDTSKNQVVLTMTNMDPVDTATYYCAHTGGAVITWFAYWGQGTLVTVSS VL: EIVMTQSPATLSVSPGERATLSCKASQSVGKNIAWYQQKPGQAPRLLIYYASNRYTGIPARFSGSGSGTEFTLTISSLQSEDFAVYYCQHIYNSPYPFGQGTKVEIK"
measure_unit = "M⁻¹ s⁻¹"
result_value = "1.52e+06"

[[record]]
binder = "h6B2.L2H5 (antibody, V domains shown, Fully humanized version; FR/HVR pieces in order) VH: EVTLKESGPALVKPTQTLTLTCTFSGFSLSTYGMGVSWIRQPPGKALEWLASIWWNGNTYYNPSLKSRLTITKDTSKNQVVLTMTNMDPVDTATYYCAHTGGAVITWFAYWGQGTLVTVSS VL: DIQMTQSPSSLSASVGDRVTITCKASQSVGKNIAWYQQKPGKAPKLLIYYASNRYTGVPSRFSGSGSGTDFTFTISSLQPEDIATYYCQHIYNSPYPFGQGTKVEIK"
measure_unit = "M⁻¹ s⁻¹"
result_value = "1.28e+06"


**Query** I would be grateful if you could share the reported kon for h7E7.L1H3 (antibody, V domains shown, VH: I48M against h7E7.L1H1; FR/HVR pieces) VH: EVQLVQSGAEVKKPGASVKVSCKASGYTFTEYSIYWVRQAPGQRLEIMGRIDPKNGRTYYVDKFKNRATLTADTSASTAYMELSSLRSEDTAVYFCTRIYGFYFDFWGQGTLVTVSS VL: DIQLTQSPSFLSASVGDRVTITCKGSQNVNKYLVWYQQKPGKAPKLLIYNTDNLQSGIPSRFSGSGSGTEYTLTISSLQPEDFATYFCYQYNNGFTFGQGTKVEIK .
**Result** 908000
